What follows is literature data on pIC50 for UniProtKB Q15761.
Sequence (Q15761 whole entry): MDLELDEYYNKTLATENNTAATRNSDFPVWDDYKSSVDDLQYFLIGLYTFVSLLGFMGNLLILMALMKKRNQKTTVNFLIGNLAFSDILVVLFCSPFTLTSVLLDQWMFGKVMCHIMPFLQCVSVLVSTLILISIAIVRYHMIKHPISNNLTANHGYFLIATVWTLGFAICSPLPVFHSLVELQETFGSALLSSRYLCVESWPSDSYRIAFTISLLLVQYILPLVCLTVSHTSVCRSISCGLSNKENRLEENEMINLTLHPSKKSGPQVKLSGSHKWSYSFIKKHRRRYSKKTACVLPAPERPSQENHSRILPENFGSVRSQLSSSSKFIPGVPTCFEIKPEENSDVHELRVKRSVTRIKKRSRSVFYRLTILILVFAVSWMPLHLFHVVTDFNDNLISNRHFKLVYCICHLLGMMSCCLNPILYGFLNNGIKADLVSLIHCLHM
pIC50: −log10 of the molar value.
Property: pIC50

Reference set, count: 2
Molecule | Measured number
Cc1cc2[nH]c(C)nc(N3CCCCC3)c-2n1 | 6.80
Cc1nc(N2CCCCC2)c2[nH]c(-c3ccccn3)cc2n1 | 6.82

1. Cc1nc(N2CCNCC2)c2[nH]c(-c3ccccc3)cc2n1
2. O=C1O[C@]2(CC[C@H](C(=O)Nc3cnc(-c4ccccc4)cn3)CC2)c2ccncc21
Between 1 and 2 , whose recorded pIC50 is greater? Pick one and reply with its label.
2

A. CCCNc1nc(N2CCCCC2)c2[nH]c(-c3ccccc3)cc2n1
B. Cc1nc2cc(-c3ccccc3)nc-2c(N2CCCCC2CN(C)C)[nH]1 (stereo unspecified)
C. CCS(=O)(=O)N1CC2(CCN(C(=O)Nc3cn(-c4ccc(F)cc4)cn3)CC2)c2ccccc21
D. Cc1nc(N2CCCCC2)c2[nH]c(-c3ccccc3Cl)cc2n1
Sort (4 molecules) by pIC50: min first. Please list the labels in the order you were asked to rank them.
B, D, A, C
(B: 5.28, D: 6.18, A: 6.92, C: 8.39)
